Exercise: for every item that follows, state its recorded Percentage of motility inhibition 0 h.
# Test system: C. elegans
# measurement-setup: Table S2, C. elegans SS assay, 110 μM, 0 h, averages of 4 data points
One number for each entry, in %.

These solved cases illustrate the format of a correct answer.
| compound | tested-target | numeric-result |
| --- | --- | --- |
| CC1=C[C@]23C(=O)[C@@H](C=C(COC(=O)c4ccccc4)[C@@H](O)[C@]2(O)[C@H]1OC(=O)c1ccccc1)[C@H]1[C@@H](C[C@H]3C)C1(C)C [Ingenol 3,20-dibenzoate] | C. elegans | 0 |
| CC1(C)S[C@@H]2[C@H](NC(=O)[C@H](N)c3ccc(O)cc3)C(=O)N2[C@H]1C(=O)O.O.O.O [Amoxicillin (trihydrate)] | C. elegans | 27 |
| COc1cc2c(cc1OC)-c1c(C)c3ccc(OC)c(OC)c3c[n+]1CC2.O=[N+]([O-])[O-] [Dehydrocorydaline (nitrate)] | C. elegans | 5 |
| C=C1CC[C@@]2(C)[C@H]([C@@H]1C)[C@H]1CC[C@@H]3[C@@]4(C)CC[C@H](O)C(C)(C)[C@@H]4CC[C@@]3(C)[C@]1(C)C[C@@H]2O | C. elegans | 12 |
| C=C1CC23CC4[C@@H]5[C@@]6(C)C[C@H](OC(C)=O)C[C@]57C(N4C6)[C@@]2(O)C(OC(C)=O)[C@H]1[C@@H](O)[C@H]37 (stereo partly drawn) | C. elegans | 0 |

In the following, a different compound is considered.
Entry Cn1c(=O)c2c(ncn2CC(O)CO)n(C)c1=O (stereo not drawn) under C. elegans had Percentage of motility inhibition 0 h of 66

---

Exercise: for every item that follows, state its recorded Percentage of motility inhibition 0 h.
# Test system: C. elegans
# measurement-setup: Table S2, C. elegans SS assay, 110 μM, 0 h, averages of 4 data points
Include the unit after the number when you answer.

These solved cases illustrate the format of a correct answer.
| compound | result |
| --- | --- |
| O=C(Nc1ccccc1F)N[C@H]1N=C(c2ccccc2)c2ccccc2NC1=O (racemic) [RSV604 (racemate)] | 23% |
| CCN[C@@H]1C[C@H](N)[C@@H](O[C@H]2OC(CN)=CC[C@H]2N)[C@H](O)[C@H]1O[C@H]1OC[C@](C)(O)[C@H](NC)[C@H]1O.CCN[C@@H]1C[C@H](N)[C@@H](O[C@H]2OC(CN)=CC[C@H]2N)[C@H](O)[C@H]1O[C@H]1OC[C@](C)(O)[C@H](NC)[C@H]1O.O=S(=O)(O)O.O=S(=O)(O)O.O=S(=O)(O)O.O=S(=O)(O)O.O=S(=O)(O)O [Netilmicin (sulfate)] | 0% |
| CN1[C@@H](CC(=O)c2ccccc2)CCC[C@H]1CC(=O)c1ccccc1 [Lobelanine] | 0% |
| COc1ccc(C[C@H]2NC[C@H](O)[C@H]2OC(C)=O)cc1 [Anisomycin] | 10% |
| CC(C)=C1C/C=C(\C)CC/C=C(\C)CC1=O [Germacrone] | 12% |

Entry Oc1cc(O)c2c(c1)OC1(c3ccc(O)c(O)c3)Oc3cc(O)c4c(c3C2C1O)OC(c1ccc(O)c(O)c1)C(O)C4 (stereo not drawn) [Procyanidin A1] ; Percentage of motility inhibition 0 h = 23%

---

# Test system: C. elegans
# measurement-setup: Table S2, C. elegans SS assay, 110 μM, 0 h, averages of 4 data points
Classification field: met = Percentage of motility inhibition 0 h at or over 10%; not met = Percentage of motility inhibition 0 h under 10%.

# example entries with known answers
| molecule | group-label |
| --- | --- |
| O=c1cc(-c2ccc(O)c(O)c2)oc2c(C3OC(CO)C(O)C(O)C3OC3OC(CO)C(O)C(O)C3O)c(O)cc(O)c12 (stereo not drawn) [2"‐O‐beta‐L‐galactopyranosylorientin] | not met |
| COc1cc(/C=C/C(=O)NCC(O)c2ccc(O)cc2)ccc1O (stereo not shown) [N‐Feruloyloctopamine] | met |
| CC1(C)S[C@@H]2[C@H](NC(=O)Cc3ccccc3)C(=O)N2[C@H]1C(=O)[O-].[K+] [Penicillin G (potassium)] | met |
| COc1cc2c3c(c1OC)-c1ccccc1C[C@H]3NCC2 [N‐Nornuciferine] | met |
| Cc1c(C)c2c(c(C)c1O)CCC(C)(CCCC(C)CCCC(C)CCCC(C)C)O2 (racemic) [DL-alpha-Tocopherol] | not met |

Identify whether the reported Percentage of motility inhibition 0 h of the following molecule is 10% or greater: `Nc1ncnc2c1ncn2[C@H]1C[C@H](O)[C@@H](COP(=O)([O-])OP(=O)([O-])OP(=O)([O-])O)O1.[Na+].[Na+].[Na+]`
met

Identify whether the reported Percentage of motility inhibition 0 h of the following molecule is 10% or greater: CN1c2ccccc2C(=O)N2CCc3c([nH]c4ccccc34)[C@@H]21 (racemic) [(±)‐Evodiamine]
not met

Recorded values, source paper PMC11855827.
